- assay details: Solubility in water after 7 hours equilibration
- Type: physicochemical
- condition notes: thermodynamic from solid
measured attribute: solubility at 7 h

Task: Requested read-out: solubility at 7 h. Entry: CC1=NN(c2ccccc2)C(=O)C1 [Edaravone, 3-Methyl-1-phenyl-2-pyrazolin-5-one]
Result: 2000 to 3000 µg/mL
